Test system: 997726-040-R-J2-PDC tumor spheroids, viability;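 note: spheroids exposed to compounds for seven days before readout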
Test: Anticancer human tumor 997726-040-R-J2-PDC patient-derived squamous cell lung carcinoma cell line growth inhibition [PI3K]
Conditions: second compound 10 µM; first compound 3.16 µM; active compounds read low; spheroids with HUVEC and MSC
Measured Attribute: viability, T/C (%)
// return numeric value only (unit: %, not printed)

Cn1nccc1Nc1nccc(-c2ccn(C(CO)c3ccc(Cl)c(F)c3)c(=O)c2)n1 (stereo unspecified) + CC(Nc1ncnc2nc[nH]c12)c1cc2cccc(Cl)c2c(=O)n1-c1ccccc1; 40.4
C#Cc1c(F)ccc2cc(O)cc(-c3ncc4c(N5CC6CCC(C5)N6)nc(OCC56CCCN5CC(F)C6)nc4c3F)c12 (stereo unspecified) + Cc1nc(NC(=O)N2CCCC2C(N)=O)sc1-c1ccnc(C(C)(C)C(F)(F)F)c1; 14.1
CC1(C)CCC(CN2CCN(c3ccc(C(=O)NS(=O)(=O)c4ccc(NCC5CCOCC5)c([N+](=O)[O-])c4)c(Oc4cnc5[nH]ccc5c4)c3)CC2)=C(c2ccc(Cl)cc2)C1 + CC(Nc1ncnc2nc[nH]c12)c1cc2cccc(Cl)c2c(=O)n1-c1ccccc1; 51.2
CNC(=O)c1ccc(N2C(=S)N(c3ccc(C#N)c(C(F)(F)F)c3)C(=O)C2(C)C)cc1F + Cc1nc(NC(=O)N2CCCC2C(N)=O)sc1-c1ccnc(C(C)(C)C(F)(F)F)c1; 11.9

So for CC(C)NCC(C(=O)N1CCN(c2ncnc3c2C(C)CC3O)CC1)c1ccc(Cl)cc1 (stereo unspecified) + CC(Nc1ncnc2nc[nH]c12)c1cc2cccc(Cl)c2c(=O)n1-c1ccccc1 , the logged viability, T/C turned out to be 13.7

So for CC(Cn1ccc(-c2ccc(C#N)c(Cl)c2)n1)NC(=O)c1cc(C(C)O)[nH]n1 (stereo unspecified) + CC(Nc1ncnc2nc[nH]c12)c1cc2cccc(Cl)c2c(=O)n1-c1ccccc1 , the logged viability, T/C turned out to be 51.5

So for CC1(C)CCC(Nc2ncc(C(F)(F)F)c(-c3c[nH]c4c(P(C)(C)=O)c(C#N)ccc34)n2)CN1 (stereo unspecified) + CC(Nc1ncnc2nc[nH]c12)c1cc2cccc(Cl)c2c(=O)n1-c1ccccc1 , the logged viability, T/C turned out to be 39.8

So for CC(Cn1ccc(-c2ccc(C#N)c(Cl)c2)n1)NC(=O)c1cc(C(C)O)[nH]n1 (stereo unspecified) + Cc1nc(NC(=O)N2CCCC2C(N)=O)sc1-c1ccnc(C(C)(C)C(F)(F)F)c1 , the logged viability, T/C turned out to be 14.4

So for CC1(C)CCC(CN2CCN(c3ccc(C(=O)NS(=O)(=O)c4ccc(NCC5CCOCC5)c([N+](=O)[O-])c4)c(Oc4cnc5[nH]ccc5c4)c3)CC2)=C(c2ccc(Cl)cc2)C1 + Cc1nc(NC(=O)N2CCCC2C(N)=O)sc1-c1ccnc(C(C)(C)C(F)(F)F)c1 , the logged viability, T/C turned out to be 5.25

So for C=CC(=O)N1CCN(c2nc(=O)n(-c3c(C)ccnc3C(C)C)c3nc(-c4c(O)cccc4F)c(F)cc23)C(C)C1 (stereo unspecified) + Cc1nc(NC(=O)N2CCCC2C(N)=O)sc1-c1ccnc(C(C)(C)C(F)(F)F)c1 , the logged viability, T/C turned out to be 22

So for Cn1ncc(Cl)c1-c1cc(C(=O)NC(CN)Cc2cccc(F)c2)sc1Cl (stereo unspecified) + CC(Nc1ncnc2nc[nH]c12)c1cc2cccc(Cl)c2c(=O)n1-c1ccccc1 , the logged viability, T/C turned out to be 10
